Target: Corticotropin-releasing factor receptor 2/Corticotropin-releasing factor-binding protein (Homo sapiens, UniProt P24387+Q13324)
Sequence (Q13324 whole entry): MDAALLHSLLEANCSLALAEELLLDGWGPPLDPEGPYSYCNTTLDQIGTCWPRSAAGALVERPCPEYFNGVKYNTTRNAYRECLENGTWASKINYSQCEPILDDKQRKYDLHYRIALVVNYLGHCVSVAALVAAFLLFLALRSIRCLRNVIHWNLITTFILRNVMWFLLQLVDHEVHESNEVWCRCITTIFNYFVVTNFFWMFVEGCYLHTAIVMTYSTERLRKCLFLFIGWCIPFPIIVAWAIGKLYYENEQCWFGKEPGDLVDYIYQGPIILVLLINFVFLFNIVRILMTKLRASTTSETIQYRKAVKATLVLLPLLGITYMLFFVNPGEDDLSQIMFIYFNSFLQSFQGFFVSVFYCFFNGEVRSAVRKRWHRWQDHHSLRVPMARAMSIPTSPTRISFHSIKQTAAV
Sequence (P24387 whole entry): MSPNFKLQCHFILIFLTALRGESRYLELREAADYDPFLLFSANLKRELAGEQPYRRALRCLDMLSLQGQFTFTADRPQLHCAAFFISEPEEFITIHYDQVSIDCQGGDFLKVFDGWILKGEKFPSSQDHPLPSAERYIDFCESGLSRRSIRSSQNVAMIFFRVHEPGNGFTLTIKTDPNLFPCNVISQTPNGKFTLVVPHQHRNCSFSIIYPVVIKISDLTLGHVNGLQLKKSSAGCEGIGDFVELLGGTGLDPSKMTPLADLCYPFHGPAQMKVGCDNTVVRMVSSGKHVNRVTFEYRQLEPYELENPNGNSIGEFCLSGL
Test: activators of CRF receptor 2 with binding protein – uHTS hits, confirmation (AID 602473)
Type: functional
Conditions: read-out: EC50_Mean
Activity calls are given as the source filed them. No stated cut-off is given here; in the data, actives have a measured EC50 and inactives only a lower limit.
Write down the outcome that applies. Available outcomes: TRUE = active, FALSE = inactive

Known results for molecules:
[[record]]
molecule = "C[C@H]1CC[C@@H]2[C@@H](C)[C@H]3[C@H](C[C@H]4[C@@H]5CC=C6C[C@@H](O[C@@H]7O[C@H](CO)[C@H](O)[C@H](O[C@@H]8O[C@H](CO)[C@@H](O)[C@H](O)[C@H]8O)[C@H]7O[C@@H]7O[C@@H](C)[C@H](O)[C@@H](O)[C@H]7O)CC[C@]6(C)[C@H]5CC[C@]34C)N2C1"
classification = "TRUE"

[[record]]
molecule = "COc1ccc(CCNC(=O)c2cccn2C)cc1"
classification = "FALSE"

[[record]]
molecule = "CCOC(=O)c1ccc(NC(=S)N2CCSC2c2ccc(Cl)cc2)cc1 (stereo unspecified)"
classification = "TRUE"

[[record]]
molecule = "Cc1ccc(NC(=O)CCn2cc(C(F)(F)F)ccc2=O)cc1"
classification = "FALSE"


Hello, I am checking results. What call was entered for O=C(NCc1cccc(F)c1)c1cccc2c1C(=O)c1ccc(N3CCCC3)cc1S2(=O)=O ? TRUE

GET /call?item= CCOC(=O)CSC1=C(C#N)C(c2ccc(Cl)cc2)C(C(=O)OC)C(=O)N1 (stereo unspecified) returns the recorded outcome of this test. FALSE

// return assay outcome for Brc1cccc(C2CC(c3ccccc3)n3nnnc3N2)c1 (stereo unspecified) FALSE

Please let me know the test result on file for COC(=O)CN1C(=O)COc2ccc(S(=O)(=O)NCc3ccc(Cl)cc3)cc21 . FALSE
